System: CV S-protein construct 6 trimer TP31001F (SARS-CoV-2, UniProt P0DTC2 14-1208)
Method summary: SPR
Property label: Kd (nM)
Answers are plain numbers, in nM.

Illustrative cases are given below, each with its answer.
| Binder | Kd [nM] |
| --- | --- |
| variant 6-95 (Fc fusion) VHH: EVQLVESGGGLVQPGGSLRLSCAASGIPSSIRAMGWFRQAPGKEREFVAVIRWTGGSTYYADSVKGRFTISADNSKNTAYLQMNSLKPEDTAVYYCARDIGYYDSSGYYNDGGFDYWGQGTLVTVSS | 7.6 |
| variant 6-106 (Fc fusion) VHH: EVQLVESGGGLVQPGGSLRLSCAASGIPSTLRAMGWFRQAPGKEREFVAATSWSGGSKYYADSVKGRFTISADNSKNTAYLQMNSLKPEDTAVYYCATDLYYMDVWGQGTLVTVSS | 1070 |

I need Kd for every entry listed below, if you could help.
1. variant 6-55 (Fc fusion, VHH-Fc) VHH: EVQLVESGGGLVQPGGSLRLSCAASGFTMSSSWMGWFRQAPGKEREFVARITSGGSTGYADSVKGRFTISADNSKNTAYLQMNSLKPEDTAVYYCASVDGYFDYWGQGTLVTVSS
2. variant 6-26 (Fc fusion, VHH-Fc) VHH: EVQLVESGGGLVQPGGSLRLSCAASGDTFSTSWMGWFRQAPGKEREFVATINTGGGTNYADSVKGRFTISADNSKNTAYLQMNSLKPEDTAVYYCARVTTSFDYWGQGTLVTVSS

Output line:
1: 0.3; 2: 0.1
